Measured pKi of individual entries
Biological target: MMP-8h (Homo sapiens (Human), UniProt P22894)
Sequence (P22894 101-467): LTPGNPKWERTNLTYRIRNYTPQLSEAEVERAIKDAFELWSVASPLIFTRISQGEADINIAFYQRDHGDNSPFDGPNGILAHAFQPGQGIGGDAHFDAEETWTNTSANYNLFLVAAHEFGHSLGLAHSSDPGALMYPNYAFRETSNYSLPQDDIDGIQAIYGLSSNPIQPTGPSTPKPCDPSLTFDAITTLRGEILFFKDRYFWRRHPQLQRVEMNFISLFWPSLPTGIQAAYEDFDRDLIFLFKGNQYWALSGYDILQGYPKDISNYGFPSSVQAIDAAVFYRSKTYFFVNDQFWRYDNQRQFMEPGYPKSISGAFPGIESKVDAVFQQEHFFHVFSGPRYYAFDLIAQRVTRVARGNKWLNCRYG
Assay: Inhibition constant (Ki) on MMP-8h
Type: biochemical
Conditions: read-out: Ki MMP-8h; human MMP-8
Scale explanation: pKi corresponds to minus log10 of a concentration expressed in moles per litre.

| compound-structure | pKi |
| --- | --- |
| C[C@H](NC(=O)[C@H](CCC(=O)O)NC(=O)CCc1ccc(-c2ccccc2)cc1)C(N)=O | 6.51 |
| NC(=O)[C@H](CCC(=O)O)NC(=O)[C@H](CC(=O)O)NC(=O)CCc1cc(-c2ccc(-c3cccc(Cl)c3)cc2)no1 | 6.05 |
| NC(=O)[C@H](CC(=O)O)NC(=O)[C@H](CCC(=O)O)NC(=O)CCc1ccc(-c2cc(-c3ccccc3)cs2)cc1 | 6.42 |

Q. Find the recorded pKi belonging to `NC(=O)[C@H](CCC(=O)O)NC(=O)[C@H](CCC(=O)O)NC(=O)CCc1ccc(C#Cc2ccccc2)cc1` and report it.
A. 6.09

Q. Find the recorded pKi belonging to `NCCCC[C@H](NC(=O)[C@H](CCC(=O)O)NC(=O)CCc1ccc(-c2ccc(-c3ccccc3)cc2)cc1)C(N)=O` and report it.
A. 6.21

Q. Find the recorded pKi belonging to `NC(=O)[C@H](CO)NC(=O)[C@H](CCC(=O)O)NC(=O)CCc1ccc(-c2cccs2)cc1` and report it.
A. 7.33

Q. Find the recorded pKi belonging to `NC(=O)[C@H](CCC(=O)O)NC(=O)[C@H](CC(=O)O)NC(=O)CCc1ccc(-c2cc(-c3ccccc3)cs2)cc1` and report it.
A. 6.25

Q. Find the recorded pKi belonging to `C[C@H](NC(=O)[C@H](CCC(=O)O)NC(=O)CCc1cc(-c2ccc(-c3ccccc3)cc2)no1)C(N)=O` and report it.
A. 6.45
